Test: Multi-component pharmacokinetic study of GQD, GQD-GC and single herb extracts in rats (plasma, LC/MS/MS)
Type: in vivo, Sprague-Dawley rats
Details: male, Sprague-Dawley, rat; GQD-GC group (GQD without Gan-Cao): rats, oral 16.5 g/kg, plasma; read-out: Cmax
Please respond with reported Cmax for every item in the list.
Give bare numbers, in ng/mL.

COc1c(O)cc(O)c2c(=O)cc(-c3ccccc3)oc12 [Compound 8, wogonin] | 10.2
COc1cc2c(cc1O)CC[n+]1cc3c(OC)c(OC)ccc3cc1-2 [Compound 23, jatrorrhizine] | 9.14
O=C(O)[C@H]1O[C@@H](Oc2cc3oc(-c4ccccc4)cc(=O)c3c(O)c2O)[C@H](O)[C@@H](O)[C@@H]1O [Compound 17, baicalin] | 1890
O=c1c(-c2ccc(O)cc2)coc2cc(O[C@@H]3O[C@H](CO)[C@@H](O)[C@H](O)[C@H]3O)cc(O)c12 [Compound 4, genistin] | 8.08

Would you mind listing Cmax for each of the following molecules?
1. COc1c(O)cc(OC2OC(CO)C(O)C(O)C2O)c2c(=O)cc(-c3ccccc3)oc12 (stereo not drawn) [Compound 13, wogonin 5-O-glucoside]
2. COc1ccc(-c2coc3c(C4OC(COC5OCC(O)(CO)C5O)C(O)C(O)C4O)c(O)ccc3c2=O)cc1 (stereo not drawn) [Compound 5]
3. COc1ccc(-c2coc3cc(O[C@@H]4O[C@H](CO)[C@@H](O)[C@H](O)[C@H]4O)ccc3c2=O)cc1 [Compound 39, ononin]

Result:
1. 5.17
2. 6.87
3. 24.1
